Test system: L1210 leukemia ip in BDF1 mice, survival T/C
Assay info: NCI In Vivo Anticancer Drug Screen. Data for tumor model L1210 Leukemia (intraperitoneal) in B6D2F1 (BDF1) mice
Test context: endpoint: mean survival time; dose: 100.0 mg/kg/injection; schedule: Q01DX001 (ip); vehicle: saline
Toxic doses and inconclusive results are not listed. Rule as the data show it: active = T/C of 150% or more; inactive = T/C below 125%.
Outcomes: TRUE for active, FALSE for inactive

Molecule: O=NN(CCCl)C(=O)Nc1ccc(NC(=O)N(CCCl)N=O)cc1
Category: TRUE
--
Molecule: C[N+](C)(C)/N=C1\CC2CCC1C2 (stereo not drawn)
Category: FALSE
--
Molecule: CC1OC(O)C(N)C(O)C1O (stereo not drawn)
Category: FALSE
